- Tested on: ICR mice
- PROTOCOL_TEXT: Acute toxicity experiment of single oral administration in mice
- Assay type: in vivo
- STATED_CONDITIONS: Day 5; male; 1000 mg/Kg single oral dose
Measured Daily Body Weight of Tested Male Mice (Mean ± SD), listed per entry for reference.
MEASURE: Daily Body Weight of Tested Male Mice (Mean ± SD) (g)

> print(dat)
                                    molecule  observed
 1  CCOCCN1C(=O)CCC(N2C(=O)c3cccc(F)c3C2=O)C1=O (centres unmarked)      26.7
 2  Nc1cccc2c1C(=O)N(C1CCC(=O)N(CCO)C1=O)C2=O (centres unmarked)      25.9
 3  COCCCCN1C(=O)CCC(N2C(=O)c3cccc(N)c3C2=O)C1=O (centres unmarked)      27.2
 4  COCCCN1C(=O)CCC(N2C(=O)c3cccc(F)c3C2=O)C1=O (centres unmarked)      26.1
 5  C[S+]([O-])CCN1C(=O)CCC(N2C(=O)c3cccc(N)c3C2=O)C1=O (centres unmarked)      26.1
 6  COCCN1C(=O)CCC(N2C(=O)c3cccc(NC(C)=O)c3C2=O)C1=O (centres unmarked)      27.7
 7  CCOCCN1C(=O)CCC(N2C(=O)c3cccc(N)c3C2=O)C1=O (centres unmarked)      24.8
 8  COCCN1C(=O)CCC(N2C(=O)c3cccc(O)c3C2=O)C1=O (centres unmarked)      25.4
 9  CS(=O)(=O)CCN1C(=O)CCC(N2C(=O)c3cccc(N)c3C2=O)C1=O (centres unmarked)      26.5
10  CNc1cccc2c1C(=O)N(C1CCC(=O)N(CCOC)C1=O)C2=O (centres unmarked)      26.2
11  CSCCN1C(=O)CCC(N2C(=O)c3cccc(N)c3C2=O)C1=O (centres unmarked)      27.0
